molecular target: T1, Nat1 (LTIITLE) (also: TFA salt); test: cell-based or functional assay
T1 peptide: LTIITLE
Non-standard residues stand in square brackets, D forms with d. No end group written: not given here.
Property label: IC50, Thiofiavin T aggregation assay (nM)

# count of solved cases: 3
{"columns": ["Binder", "IC50, Thiofiavin T aggregation assay, nM"],
 "data": [
  ["IYIYHQR", 269],
  ["[dR][dL][dK][dW][dR][dW] [rlkwrw]", 702],
  ["LLIKAHR", 258]
]}

[1] [dR][dL][dH][dW][dK][dH][dH] [rlhwkhh]
[2] LRIKYHR
Hi there, can you help? I need to know whether 1 or 2 has lower measured IC50, Thiofiavin T aggregation assay. // output: label of the selected item 2
